EXPERIMENT: Half life in human at 10 mg/kg, po by LC-MS/MS analysis
Assay type: ADME, organism-based
SETUP CONDITIONS: in vivo
PARAMETER MEASURED: half-life (h)
Numbers only here, please. The scale is h.

(Q) If you can, please state the reported half-life value of Clc1cccc(Cn2ccc3cnc(NC4CCC(N5CCNCC5)CC4)nc32)c1 (stereo unspecified) .
(A) 3.8

---

EXPERIMENT: Half life in human at 1 mg/kg, iv by LC-MS/MS analysis
Format: ADME, organism-based
SETUP CONDITIONS: in vivo
PARAMETER MEASURED: half-life
# number then unit; no other words

(Q) If you can, please state the reported half-life value of Clc1cccc(Cn2ccc3cnc(NC4CCC(N5CCNCC5)CC4)nc32)c1 (stereo unspecified) .
(A) 145 min

---

EXPERIMENT: Antiproliferative activity against HUVEC cells assessed as cell growth inhibition measured after 72 hrs by crystal violet staining based analysis
Type: toxicity
SETUP CONDITIONS: human
PARAMETER MEASURED: IC50 at 72 h

(Q) If you can, please state the reported IC50 at 72 h value of Clc1cccc(Cn2ccc3cnc(NC4CCC(N5CCNCC5)CC4)nc32)c1 (stereo unspecified) .
(A) 6.9 µM

---

Tested on: HCT-116
EXPERIMENT: Antiproliferative activity against human HCT-116 cells
Format: functional, cell-based
PARAMETER MEASURED: IC50 (µM)
Numbers only here, please. The scale is µM.

(Q) Notebook: pull reported IC50 for HCT-116, entry CNC(=O)c1ccccc1Nc1nc(Nc2ccc(NC(=O)CCCCCCC(=O)NO)cc2)ncc1Cl
(A) 0.248

---

EXPERIMENT: Oral bioavailability in human at 10 mg/kg
Format: ADME, organism-based
SETUP CONDITIONS: in vivo
PARAMETER MEASURED: bioavailability
# number then unit; no other words

(Q) If you can, please state the reported bioavailability value of Clc1cccc(Cn2ccc3cnc(NC4CCC(N5CCNCC5)CC4)nc32)c1 (stereo unspecified) .
(A) 77.6%

---

TESTED SYSTEM: Histone deacetylase 2 (Homo sapiens, UniProt Q92769)
Sequence (Q92769 whole entry): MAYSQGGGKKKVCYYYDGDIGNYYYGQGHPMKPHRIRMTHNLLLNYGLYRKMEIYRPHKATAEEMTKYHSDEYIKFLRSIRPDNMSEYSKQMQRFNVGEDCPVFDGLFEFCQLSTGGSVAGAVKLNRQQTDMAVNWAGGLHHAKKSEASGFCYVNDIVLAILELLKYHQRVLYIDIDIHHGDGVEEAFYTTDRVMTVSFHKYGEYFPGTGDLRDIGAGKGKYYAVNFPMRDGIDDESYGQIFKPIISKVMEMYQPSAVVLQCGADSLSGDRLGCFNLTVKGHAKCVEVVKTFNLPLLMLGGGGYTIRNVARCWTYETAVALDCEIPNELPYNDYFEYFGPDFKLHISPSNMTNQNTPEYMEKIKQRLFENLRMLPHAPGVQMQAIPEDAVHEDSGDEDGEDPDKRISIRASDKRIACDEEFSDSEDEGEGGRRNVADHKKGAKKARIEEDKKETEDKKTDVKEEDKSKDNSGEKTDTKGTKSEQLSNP
PARAMETER MEASURED: IC50
# number then unit; no other words

(Q) If you can, please state the reported IC50 value of CNC(=O)c1ccccc1Nc1nc(Nc2ccc(NC(=O)CCCCCCC(=O)NO)cc2)ncc1Cl .
(A) 629 nM

---

Tested on: MDA-MB-231
EXPERIMENT: Antiproliferative activity against human MDA-MB-231 cells assessed as reduction in cell viability by MTT assay
Type: functional, cell-based
PARAMETER MEASURED: IC50 (nM)
Numbers only here, please. The scale is nM.

Example cases with answers are listed next.
[
  {
    "COMPOUND": "CCCS(=O)(=O)NCC(=O)N1CCN(c2ccc(Nc3ncc(Cl)c(Nc4ccccc4C(=O)NC)n3)cc2)CC1",
    "UNITS OF MEASURE": "nM",
    "IC50": 180
  },
  {
    "COMPOUND": "CNC(=O)c1ccccc1Nc1nc(Nc2ccc(N3CCN(C(=S)SCCCN4CCOCC4)CC3)cc2)ncc1Cl",
    "UNITS OF MEASURE": "nM",
    "IC50": 4190
  }
]

(Q) Notebook: pull reported IC50 for MDA-MB-231, entry O=C1CCc2cccc(Oc3nc(Nc4ccc(N5CCN(C(=S)SCCCN6CCOCC6)CC5)cc4)ncc3C(F)(F)F)c21
(A) 260
